# System: MS2 coat protein
# ASSAY REMARKS: apparent KD of MS2 coat protein; designed switch direction (-1 OFF switch, 1 ON switch): -1; higher = weaker reporter binding
# RECORDED CONDITIONS: input ligand: microRNA oligo, concentration not stated
sequences and their reported apparent KD of MS2 coat protein
Your answer should be a plain number; it is taken to be in nM.

Study these solved cases before continuing.
QUERY SEQUENCE: UAAUUAAGUGUGAGGAUAUGCUGGUCCUUGGAUCAGCAGAAGGCACAUGAGGAUCACCCAUGUAAAUUAUUUAU [Mat - Exclusion 4 - JL Mod - D60] (Eterna round: R96, puzzle: Brourd's mod of Exclusion 4)
apparent KD of MS2 coat protein / nM: 54
--
QUERY SEQUENCE: CAGUACUGAGGAUAUACAUGAGGAUCACCCAUGUGUUCCAGCUAGGAGACUAGCAAAAGUAGAAGGCAGUACUG [salish99_ex3_r3_074] (Eterna round: R96, puzzle: Exclusion 3)
apparent KD of MS2 coat protein / nM: 20
--
QUERY SEQUENCE: UACAUGAGGAUCACCCAUGUUUUAUCAUGUGUAAUAAUAAUGUAGGAUAUGUAUUAUUUAUUUUAACAGAAGGACAAUAAUAAA [JMF's solution 1] (Eterna round: R96, puzzle: Exclusion NG 3)
apparent KD of MS2 coat protein / nM: 265

Let's switch to this sequence now.
Ask: Write down the reported apparent KD of MS2 coat protein of UUAAAUCAUGUAGGAUAUGCUUUGCAAAGCGAGGCAGAAGGACAUGAGGAUCACCCAUGUGCUAGCGUCCGAGAACGGAUGCAA [Mat - Exclusion NG 1 - Mod of JL - D64] (Eterna round: R96, puzzle: Exclusion NG 1) , test system: MS2 coat protein.
Result: 41.6
